Biological target: human ACC1 (Homo sapiens, UniProt Q13085)
Construct: His6 (from vector pFAST-BacHTc); made in house; host or cells: SF-9 insect cells, recombinant baculovirus BAC-ACC1
Test: ACC1 inhibitory activity (malachite green)
Format: biochemical
Conditions: test compound 10 μM; read-out: ACC1 10 μM inhibitory rate (%)
Experimental: The ACC1 inhibitory action of the compound of the present invention was evaluated by the following method. (1) Cloning of Human ACC1 Gene and Preparation of Recombinant Baculovirus Human ACC1 gene was cloned by PCR using a human liver cDNA library (Clontech) as a template and Primer 1 and Primer 2 shown below. Primer 1 and Primer 2 were prepared by adding SalI, NotI restriction enzyme recognition sequences based on the information of the base sequence of human ACC1 gene (Genbank Accession U19822). […]
Measured Endpoint: inhibition at 10 µM

>>> print(df.to_string())
                                   compound    measured_endpoint  result
0  CC(=O)N[C@@H](C)[C@@H]1Cc2ccc(OCc3ccc(OCC4CC4)cc3F)cc2O1  inhibition at 10 µM     42%
1  CC(=O)NC(C)c1cc2ccc(CCc3ccc(OCC4CC4)cc3)cc2o1 (stereo not drawn)  inhibition at 10 µM     27%
2  CCOc1ccc(COc2ccc3sc(C(C)NC(C)=O)cc3c2)cc1 (stereo not drawn)  inhibition at 10 µM     17%
3  CCOc1ccc(COc2ccc3cc(C(C)NC(C)=O)sc3c2)cc1 (stereo not drawn)  inhibition at 10 µM     24%
4  CCCOc1ccc(CCc2ccc3cc(C(C)NC(C)=O)oc3c2)cc1 (stereo not drawn)  inhibition at 10 µM     36%
5  CC(=O)NC(C)c1cc2cc(OCc3ccc(OCC4CC4)cc3)ccc2o1 (stereo not drawn) [Example 132 (retention time longer)]  inhibition at 10 µM     46%
6  CCOc1ccc(COc2ccc3oc(C(C)NC(C)=O)cc3c2)c(Cl)c1 (stereo not drawn)  inhibition at 10 µM     19%
7  CC(=O)NC(C)c1cc2ccc(CCc3ccc(OC4CCCC4)cc3)cc2o1 (stereo not drawn)  inhibition at 10 µM     30%
8  CCCCOc1ccc(CCc2ccc3cc(C(C)NC(C)=O)oc3c2)cc1 (stereo not drawn)  inhibition at 10 µM     35%

* * *

Reported inhibition at 10 µM by item:
Biological target: human ACC2 (Nd) (Homo sapiens, UniProt O00763)
Construct: His6 (from vector pFAST-BacHTa); made in house; host or cells: SF-9 insect cells, recombinant baculovirus BAC-ACC2 (Nd)
Sequence (O00763 117-2458 limits assumed): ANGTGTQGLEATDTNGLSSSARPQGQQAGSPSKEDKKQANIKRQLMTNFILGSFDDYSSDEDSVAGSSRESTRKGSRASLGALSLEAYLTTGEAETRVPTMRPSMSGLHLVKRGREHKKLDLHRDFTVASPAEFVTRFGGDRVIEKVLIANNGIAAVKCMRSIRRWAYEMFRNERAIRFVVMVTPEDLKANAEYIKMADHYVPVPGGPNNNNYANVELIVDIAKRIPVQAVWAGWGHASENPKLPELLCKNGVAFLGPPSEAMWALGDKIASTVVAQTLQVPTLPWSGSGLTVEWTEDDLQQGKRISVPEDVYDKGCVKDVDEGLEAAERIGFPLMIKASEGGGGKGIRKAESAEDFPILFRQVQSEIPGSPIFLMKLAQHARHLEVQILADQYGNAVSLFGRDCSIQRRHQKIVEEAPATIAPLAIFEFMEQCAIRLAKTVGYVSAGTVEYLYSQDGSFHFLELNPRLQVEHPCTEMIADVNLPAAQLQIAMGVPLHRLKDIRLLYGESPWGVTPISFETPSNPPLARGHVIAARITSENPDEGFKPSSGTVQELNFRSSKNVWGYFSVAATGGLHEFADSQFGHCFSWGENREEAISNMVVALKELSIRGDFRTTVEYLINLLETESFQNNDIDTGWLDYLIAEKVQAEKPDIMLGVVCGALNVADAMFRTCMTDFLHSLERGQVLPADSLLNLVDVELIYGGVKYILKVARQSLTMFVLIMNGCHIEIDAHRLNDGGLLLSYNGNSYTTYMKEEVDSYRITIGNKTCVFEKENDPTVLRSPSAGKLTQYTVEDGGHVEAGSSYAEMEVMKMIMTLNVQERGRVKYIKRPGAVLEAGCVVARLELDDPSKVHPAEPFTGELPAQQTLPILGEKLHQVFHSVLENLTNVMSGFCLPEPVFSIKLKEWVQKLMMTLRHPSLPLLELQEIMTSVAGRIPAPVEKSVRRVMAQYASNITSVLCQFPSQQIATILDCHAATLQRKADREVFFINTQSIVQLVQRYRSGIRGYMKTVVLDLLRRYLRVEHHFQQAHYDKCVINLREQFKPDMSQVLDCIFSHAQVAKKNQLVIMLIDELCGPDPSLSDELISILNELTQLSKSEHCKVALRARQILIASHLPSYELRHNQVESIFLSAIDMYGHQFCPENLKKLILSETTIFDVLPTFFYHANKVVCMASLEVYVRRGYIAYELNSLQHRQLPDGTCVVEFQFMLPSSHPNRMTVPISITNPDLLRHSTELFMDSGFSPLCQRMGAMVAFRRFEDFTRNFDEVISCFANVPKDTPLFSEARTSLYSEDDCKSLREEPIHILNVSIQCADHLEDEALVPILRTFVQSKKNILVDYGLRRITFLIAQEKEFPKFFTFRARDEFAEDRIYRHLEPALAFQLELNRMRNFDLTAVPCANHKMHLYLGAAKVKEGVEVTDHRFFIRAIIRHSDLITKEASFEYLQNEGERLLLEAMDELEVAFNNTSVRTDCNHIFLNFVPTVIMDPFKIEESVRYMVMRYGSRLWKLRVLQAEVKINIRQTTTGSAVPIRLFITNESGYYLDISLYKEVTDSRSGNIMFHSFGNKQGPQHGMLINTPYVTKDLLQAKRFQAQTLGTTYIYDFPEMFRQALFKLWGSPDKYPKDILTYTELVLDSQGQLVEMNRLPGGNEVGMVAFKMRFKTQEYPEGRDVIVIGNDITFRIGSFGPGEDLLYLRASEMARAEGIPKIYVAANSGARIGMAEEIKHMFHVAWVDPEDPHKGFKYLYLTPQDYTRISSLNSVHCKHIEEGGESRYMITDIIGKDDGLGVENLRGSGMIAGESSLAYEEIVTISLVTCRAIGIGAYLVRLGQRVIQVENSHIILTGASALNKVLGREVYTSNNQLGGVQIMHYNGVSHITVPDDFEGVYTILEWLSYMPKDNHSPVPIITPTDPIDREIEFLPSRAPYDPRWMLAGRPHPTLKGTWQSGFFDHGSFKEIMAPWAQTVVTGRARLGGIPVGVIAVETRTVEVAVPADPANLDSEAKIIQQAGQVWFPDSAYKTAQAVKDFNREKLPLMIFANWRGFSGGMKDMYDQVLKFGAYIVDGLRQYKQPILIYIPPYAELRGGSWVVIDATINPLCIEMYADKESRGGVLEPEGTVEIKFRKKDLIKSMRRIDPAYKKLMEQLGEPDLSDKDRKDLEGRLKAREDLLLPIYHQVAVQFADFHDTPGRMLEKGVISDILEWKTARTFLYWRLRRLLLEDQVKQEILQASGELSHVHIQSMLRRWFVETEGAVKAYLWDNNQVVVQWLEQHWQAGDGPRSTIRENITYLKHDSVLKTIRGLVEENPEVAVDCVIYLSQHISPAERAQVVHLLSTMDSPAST
Experiment: ACC2 inhibitory activity (malachite green)
Assay type: biochemical
Settings: test compound 10 μM; read-out: ACC2 10 μM inhibitory rate (%)
Measured Endpoint: inhibition at 10 µM (%)

>>> print(df.to_string())
                                    compound                             target_system    measured_endpoint  unit_label  number
 0  CCOc1ccc(/C=C/c2ccc3cc(C(C)NC(C)=O)oc3c2)cc1 (stereo not shown)  human ACC2 (Nd) (Homo sapiens, UniProt O00763)  inhibition at 10 µM           %      83
 1  CC(=O)N[C@@H](C)[C@@H]1Cc2ccc(OCc3ccc(OCC4CC4)cc3F)cc2O1  human ACC2 (Nd) (Homo sapiens, UniProt O00763)  inhibition at 10 µM           %      88
 2  CC(=O)N[C@@H](C)[C@@H]1Cc2ccc(OCc3cnc(OCC4CC4)cc3F)cc2O1  human ACC2 (Nd) (Homo sapiens, UniProt O00763)  inhibition at 10 µM           %      74
 3  CCCOc1ccc(C#Cc2ccc3c(c2)O[C@H]([C@H](C)NC(C)=O)C3)cc1  human ACC2 (Nd) (Homo sapiens, UniProt O00763)  inhibition at 10 µM           %      76
 4  COCOc1ccc(CCc2ccc3cc(C(C)NC(C)=O)oc3c2)cc1 (stereo not shown)  human ACC2 (Nd) (Homo sapiens, UniProt O00763)  inhibition at 10 µM           %      80
 5  CCCOc1ccc(CCc2ccc3cc(C(C)NC(C)=O)oc3c2)cc1 (stereo not shown)  human ACC2 (Nd) (Homo sapiens, UniProt O00763)  inhibition at 10 µM           %      84
 6  CC(=O)NC(C)c1coc2cc(OCc3ccc(OCC4CC4)nc3F)ccc12 (stereo not shown)  human ACC2 (Nd) (Homo sapiens, UniProt O00763)  inhibition at 10 µM           %      93
 7  CC(=O)N[C@@H](C)[C@@H]1Cc2ccc(OCc3ccc(OC[C@@H]4CCCO4)cc3F)cc2O1  human ACC2 (Nd) (Homo sapiens, UniProt O00763)  inhibition at 10 µM           %      84
 8  CC(=O)N[C@H](C)[C@H]1Cc2ccc(C#Cc3ccc(OCC4CC4)cc3)cc2O1 (racemic)  human ACC2 (Nd) (Homo sapiens, UniProt O00763)  inhibition at 10 µM           %      78
 9  CCOc1ccc(COc2ccc3cc(C(C)NC(C)=O)oc3c2)cc1Br (stereo not shown)  human ACC2 (Nd) (Homo sapiens, UniProt O00763)  inhibition at 10 µM           %      74
10  CCOc1ccc(CCc2ccc3cc(C(C)NC(C)=O)oc3c2)cc1 (stereo not shown) [Example 190 (retention time longer)]  human ACC2 (Nd) (Homo sapiens, UniProt O00763)  inhibition at 10 µM           %      79
11  CC(=O)NC(C)c1cc2ccc(CCc3ccc4c(c3)CCO4)cc2o1 (stereo not shown)  human ACC2 (Nd) (Homo sapiens, UniProt O00763)  inhibition at 10 µM           %      80
12  CC(Nc1ccon1)c1cc2ccc(CCc3ccc(OCC4CC4)cc3)cc2o1 (stereo not shown)  human ACC2 (Nd) (Homo sapiens, UniProt O00763)  inhibition at 10 µM           %      88

* * *

Target: human ACC1 (Homo sapiens)
Construct: His6 (from vector pFAST-BacHTc); made in house; host or cells: SF-9 insect cells, recombinant baculovirus BAC-ACC1
Assay: ACC1 inhibitory activity (malachite green)
Type: biochemical
Conditions: test compound 10 μM

Compound	Unit Label	ACC1 10 μM inhibitory rate (%)
CCOc1ccc(CCc2ccc3cc(C(C)NC(C)=O)oc3c2)cc1 (stereo not shown)	%	23
CC(=O)NC(C)c1cc2ccc(CCc3ccc(OCC4CC4)cc3)cc2o1 (stereo not shown) [Example 191 (retention time shorter)]	%	20
CC(=O)NC(C)c1cc2cc(OCc3ccc(OCC4CC4)cc3F)ccc2o1 (stereo not shown) [Example 116 (retention time longer)]	%	24
CC(=O)N[C@@H](C)[C@@H]1Cc2ccc(C#Cc3ccc(OCC4CC4)cc3)cc2O1.CC(=O)N[C@H](C)[C@H]1Cc2ccc(C#Cc3ccc(OCC4CC4)cc3)cc2O1 (mixture of isomers) [Example 129 (retention time longer)]	%	51
CC(=O)NC(C)C1Cc2cc(OCc3ccc(OCC4CC4)cc3F)ccc2O1 (stereo not shown) [Example 140]	%	20
CC(=O)NC(C)C1Cc2cc(OCc3ccc(OCC4CC4)cc3F)ccc2O1 (stereo not shown) [Example 141 (retention time shorter)]	%	41
CCCCOc1ccc(CCc2ccc3cc(C(C)NC(C)=O)oc3c2)cc1 (stereo not shown) [Example 189 (retention time shorter)]	%	37

* * *

Biological target: human ACC1 (Homo sapiens)
Construct: His6 (from vector pFAST-BacHTc); made in house; host or cells: SF-9 insect cells, recombinant baculovirus BAC-ACC1
Experiment: ACC1 inhibitory activity (malachite green)
Assay type: biochemical
Details: test compound 10 μM
Measured Endpoint: ACC1 10 μM inhibitory rate (%)

Molecule	Target System	Measured Endpoint	Number
CCCOc1ccc(CCc2ccc3cc(C(C)NC(C)=O)oc3c2)cc1 (stereo not drawn)	human ACC1 (Homo sapiens)	ACC1 10 μM inhibitory rate (%)	37
CCOc1ccc(COc2ccc3oc(C(C)NC(C)=O)cc3c2)cc1 (stereo not drawn)	human ACC1 (Homo sapiens)	ACC1 10 μM inhibitory rate (%)	18
CC(=O)N[C@@H](C)[C@@H]1Cc2ccc(CCc3ccc(OCC4CC4)cc3)cc2O1.CC(=O)N[C@H](C)[C@H]1Cc2ccc(CCc3ccc(OCC4CC4)cc3)cc2O1 (mixture of isomers) [Example 130 (retention time longer)]	human ACC1 (Homo sapiens)	ACC1 10 μM inhibitory rate (%)	25

* * *

Reported inhibition at 10 µM by item:
Target: human ACC2 (Nd) (Homo sapiens)
Construct: His6 (from vector pFAST-BacHTa); made in house; host or cells: SF-9 insect cells, recombinant baculovirus BAC-ACC2 (Nd)
Assay: ACC2 inhibitory activity (malachite green)
Format: biochemical
Details: test compound 10 μM; read-out: ACC2 10 μM inhibitory rate (%)
Measured Endpoint: inhibition at 10 µM (%)

In [3]: df
Out[3]:
                                   molecule  number
0  CC(=O)N[C@H](C)[C@H]1Cc2ccc(CCc3ccc(OCC4CC4)cc3)cc2O1 (racemic) [Example 121]      73
1  CCOc1ccc(CCc2cnc3cc([C@H](C)NC(C)=O)oc3c2)cc1 [Example 107]      70
2  CC(=O)N[C@@H](C)[C@@H]1Cc2ccc(C#Cc3ccc(OCC4CC4)nc3)cc2O1 [Example 139]     100
3  CCOc1ccc(COc2ccc3oc(C(C)NC(C)=O)cc3c2)c(Cl)c1 (stereo not drawn) [Example 28]      81
4  CCOc1ccc(CCc2cc3oc(C(C)NC(C)=O)cc3cn2)cc1 (stereo not drawn) [Example 135]      81
5  CCOc1ccc(OCc2ccc3sc(C(C)NC(C)=O)nc3c2)cc1 (stereo not drawn) [Example 37]      77
6  CCOc1ccc(COc2ccc3oc(C(C)NC(C)=O)cc3c2)cc1 (stereo not drawn) [Example 18]      85
7  CC(=O)NC(C)c1cc2cc(OCc3cnc(OCC4CC4)cc3F)ccc2o1 (stereo not drawn) [Example 154]      78
8  CC(=O)NC(C)c1cc2ccc(CCc3ccc(OCC4CC4)cc3)cc2o1 (stereo not drawn) [Example 150]      81
